Catalogue of compounds with associated melting point

{"columns": ["compound", "melting point"],
 "data": [
  ["COC(=O)Cc1c(C)n(-c2nc(OC)nc3ccccc23)c2ccc(OC)cc12", "152 to 154 °C"],
  ["CCc1nn(C2CCCC2)c2cc(C(=O)NCc3ccncc3)ccc12", "147 to 149 °C"],
  ["CC(NC(=O)c1cccc([N+](=O)[O-])c1)C(F)(F)F (stereo unspecified)", "130 to 131 °C"],
  ["COc1ccc2[nH]c(C)c(C=O)c2c1", "190 to 191 °C"],
  ["COC(=O)C1=Cc2cc(Br)cnc2N2CCCC2CC1 (stereo unspecified)", "98 to 99 °C"],
  ["CCN(CCCc1c[nH]c2ccc(F)cc12)C1COc2c(F)ccc(C(=O)NC)c2C1 (stereo unspecified)", "118 °C"],
  ["O=C(COc1ccc2c(-c3ccccc3F)noc2c1Cl)NO", "151 °C"],
  ["NC(=O)Cc1cc(Cl)ccc1[N+](=O)[O-]", "115 to 116 °C"],
  ["C#CCn1c(-c2ccccc2)nc(C(=O)N(C)C)c(C)c1=O", "137 to 140 °C"],
  ["O=C(NCc1ccc(Cl)cc1)c1cnc2cc(Cl)ccc2c1O", "237 to 239 °C"],
  ["Cc1ccc(Sc2ccccc2CN(C)C)c([N+](=O)[O-])c1", "109 to 111 °C"],
  ["COCC#Cc1ncn2c1CN(C)C(=O)c1ccccc1-2", "114 to 115 °C"],
  ["N#CC1=C(c2cccs2)Nc2n[nH]cc2C1c1cccc(Cl)c1Cl (stereo unspecified)", "232 °C"],
  ["CCC(=O)Nc1nnc2c3c(c(N4CCOCC4)nn12)CCCC3", "164 to 166 °C"],
  ["COc1ccc(-c2sc3ccccc3c2C(=O)c2ccc(OCCN3CCCCC3)cc2)cc1", "41 to 44 °C"],
  ["COc1ccc(C(=O)OCCOC(=O)NC2(C(=O)O)CC2)cc1OC", "172 to 174 °C"],
  ["COc1cc(C(=O)c2csc(-c3ccncc3)n2)cc(OC)c1OC", "178 to 180 °C"],
  ["CC(C)n1ccnc1S(=O)(=O)c1ccc(O)cc1", "152 to 153 °C"],
  ["OCC(O)COc1ccc(-c2nc(-c3cccs3)c[nH]2)cc1 (stereo unspecified)", "197 to 200 °C"],
  ["O=CC1CC(n2ccc(=O)[nH]c2=O)OC1COC(c1ccccc1)(c1ccccc1)c1ccccc1 (stereo unspecified)", "100 °C"],
  ["CC(C)(C)OC(=O)N1CCN(S(=O)(=O)c2ccc(Br)s2)CC1", "127 °C"]
]}

====

{"columns": ["compound", "melting point"],
 "data": [
  ["CC(=O)C=Cc1ccc2c(c1)OCCO2", "80 °C"],
  ["O=c1cc2c(nn1-c1ccc(Cl)cc1)-c1cccc(Cl)c1SCC2", "166 to 168 °C"],
  ["Cc1ccc(Cl)cc1N1C(=O)CN(C(C)C)C1=S", "142 to 144 °C"],
  ["CNC(=S)NS(=O)(=O)c1cc2c(cc1OC)OC(C)(C)C(NC(=O)c1cc(F)ccc1OC)C2 (stereo unspecified)", "222 °C"],
  ["O=C1COCCOCC(=O)NCCOCCOCCN1", "111 °C"],
  ["CCCc1nc2c(N)nc3cccnc3c2n1CC1(O)CCOCC1", "209 to 210 °C"],
  ["COc1ccc(C(OCC2OC(n3cnc4c(=O)[nH]c(NC(=O)Cc5ccc(Br)cc5)nc43)CC2O)(c2ccccc2)c2ccc(OC)cc2)cc1 (stereo unspecified)", "150 to 155 °C"],
  ["COc1ccc(C=CC(=O)c2cccc(O)c2)cc1", "93 to 94 °C"],
  ["CN1CC=C(c2cn(-c3cccnc3)c3ccc([N+](=O)[O-])cc23)CC1", "175 to 177 °C"],
  ["O=C1CCc2cc(C(=O)[C@H]3CC[C@H]3C(=O)O)ccc2N1 (relative stereo)", "155 to 158 °C"],
  ["CCCCN(CCCC)c1ccc(C=Cc2ccc(C=CC3=C(C#N)C(=C(C#N)C#N)OC3(C)C)s2)c(OC)c1", "191 to 192 °C"],
  ["Cc1cc(COc2ccccc2)c2c(N)c(C(N)=O)sc2n1", "194 to 196 °C"],
  ["CC(=O)c1ccc(S(=O)(=O)NCC(F)(F)F)cc1", "180 to 181 °C"],
  ["Cn1cc(S(C)=O)c(=O)c2sc(-c3ccccc3Cl)cc21 (stereo unspecified)", "167 to 169 °C"],
  ["COc1cc(C(O)(C(F)(F)F)C(F)(F)F)cc(C)c1O", "44 to 45 °C"],
  ["COc1ccccc1OCC(O)CCN1CCN(c2ccccc2)CC1 (stereo unspecified)", "101 to 102 °C"],
  ["COC(=O)Cc1nc(-c2ccc(C)cc2)oc1C", "59 to 60 °C"],
  ["CC(=O)OC[C@H](c1ccccc1)N1C(=O)C=CC1=O", "131 to 132 °C"],
  ["Nc1scc2c(-c3n[nH]c(=O)o3)nn(-c3ccccc3)c(=O)c12", "> 250 °C"],
  ["CC(=O)SC(C)CC(=O)N1CCC[C@H]1C(=O)O (stereo partly specified)", "175 to 176 °C"],
  ["COC(=O)CCC(C)C1CCC2C3CC=C4CC(OC(C)=O)CC(OC(C)=O)C4(C)C3CCC12C (stereo unspecified)", "108 to 113 °C"]
]}
